# Test system: B16
# assay_protocol: Soft agar colony formation disk diffusion assay
# Assay type: cell-based, murine
# test_conditions: 10 μg/DISK
Quick reference: zone of inhibition of the listed items.
Write down the numeric answer in Zone Units and omit the unit.

In the examples that follow, each entry is paired with its recorded zone of inhibition.
{"columns": ["compound", "property_measured", "quantity_unit", "measured_number"],
 "data": [
  ["CCOC(=O)[C@@H]1CC2=C(C(=O)c3cc4ccccc4c(OC(C)=O)c3C2=O)[C@@H](O)O1 (mixture of isomers)", "zone of inhibition", "Zone Units", 6.1],
  ["CCOC(=O)C1Cc2c(O)c3c(c(O)c2CS1)C(=O)c1ccccc1C3=O (stereo not shown)", "zone of inhibition", "Zone Units", 0],
  ["COC(=O)[C@H]1CC2=C(C(=O)c3c(cc4ccccc4c3O)C2=O)[C@H](O[C@H]2C[C@H](NC(=O)C(F)(F)F)[C@H](O)[C@H](C)O2)O1 (mixture of isomers)", "zone of inhibition", "Zone Units", 0],
  ["CCOC(=O)C1CC2=C(CO1)C(=O)c1c(c(O)c3ccccc3c1OC(C)=O)C2=O (stereo not shown)", "zone of inhibition", "Zone Units", 0],
  ["COC(=O)[C@H]1CC2=C(C(=O)c3c(c(OC)c4ccccc4c3O)C2=O)[C@H](O[C@H]2C[C@H](NC(=O)C(F)(F)F)[C@H](O)[C@H](C)O2)O1 (mixture of isomers)", "zone of inhibition", "Zone Units", 0]
]}

Task item: zone of inhibition lookup needed for CC(=O)Oc1c2c(c(O)c3ccccc13)C(=O)C1=C(CC(C(C)=O)OC1)C2=O (stereo not shown) , thanks.
Reply: 76.0

Task item: Entry CCOC(=O)[C@@H]1CC2=C(C(=O)c3c(c(O)c4ccccc4c3OC(C)=O)C2=O)[C@@H](O)O1 (mixture of isomers) please
Reply: 0

Task item: Entry CCOC(=O)C1Cc2c(c(OC)c3c(c2OC)C(=O)c2ccccc2C3=O)CS1 (stereo not shown) please
Reply: 0

From: patent US5593970A
